Please provide measured Kd for the entries that follow.
Molecular target: T1, hFz: Fz domain and C-terminal flanking sequence of human MuSK (K314-T495) with C-terminal Avi- and His6-tags (human, UniProt O15146 314-495, biotinylated in vitro using the BirA enzyme)
T1 construct: also called human Fz; not shown: Avi- and His6-tags
T1 sequence: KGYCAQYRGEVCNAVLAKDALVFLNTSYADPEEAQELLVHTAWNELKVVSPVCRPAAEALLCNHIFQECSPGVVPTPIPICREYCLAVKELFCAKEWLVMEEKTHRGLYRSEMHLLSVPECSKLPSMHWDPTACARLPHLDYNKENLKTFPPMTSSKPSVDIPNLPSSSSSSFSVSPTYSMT
Experiment: bead-binding assay, Fab format: biotinylated antigen on streptavidin beads, flow cytometry, 1:1 fit; average ± s.d., n=3
Give the number; pM is assumed, so skip it.

Supply Kd value. Item: X17 Fab (Fab, V domains shown, Fab format) VH: EVQLVESGGGLVQPGGSLRLSCAASGFTISYSSIHWVRQAPGKGLEWVASIYSSSGSTYYADSVKGRFTISADTSKNTAYLQMNSLRAEDTAVYYCARGDHGYYVFGYLGMDYWGQGTLVTVSS VL: DIQMTQSPSSLSASVGDRVTITCRASQSVSSAVAWYQQKPGKAPKLLIYSASSLYSGVPSRFSGSRSGTDFTLTISSLQPEDFATYYCQQSYKPGALITFGQGTKVEIK 380

Supply Kd value. Item: X6 Fab (Fab, V domains shown, also called Fab Clone X6) VH: EVQLVESGGGLVQPGGSLRLSCAASGFTFSSSSIHWVRQAPGKGLEWVASISSYSGYTYYADSVKGRFTISADTSKNTAYLQMNSLRAEDTAVYYCARTYGSYYVSSYTGMDYWGQGTLVTVSS VL: DIQMTQSPSSLSASVGDRVTITCRASQSVSSAVAWYQQKPGKAPKLLIYSASSLYSGVPSRFSGSRSGTDFTLTISSLQPEDFATYYCQQSSSSLITFGQGTKVEIK 900

Supply Kd value. Item: X8 Fab (Fab, V domains shown, also called Fab Clone X8) VH: EVQLVESGGGLVQPGGSLRLSCAASGFTVSSSSIHWVRQAPGKGLEWVASISSSSGSTSYADSVKGRFTISADTSKNTAYLQMNSLRAEDTAVYYCARSWSYHPWYYHVGWYTGLDYWGQGTLVTVSS VL: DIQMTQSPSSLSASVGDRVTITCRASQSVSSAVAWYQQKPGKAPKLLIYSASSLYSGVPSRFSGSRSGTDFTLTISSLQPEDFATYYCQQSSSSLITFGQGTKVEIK 1400

Supply Kd value. Item: X2 Fab (Fab, V domains shown, Fab format) VH: EVQLVESGGGLVQPGGSLRLSCAASGFTVSSSSIHWVRQAPGKGLEWVASISSSYGSTSYADSVKGRFTISADTSKNTAYLQMNSLRAEDTAVYYCARSEGDRYVSGYMGMDYWGQGTLVTVSS VL: DIQMTQSPSSLSASVGDRVTITCRASQSVSSAVAWYQQKPGKAPKLLIYSASSLYSGVPSRFSGSRSGTDFTLTISSLQPEDFATYYCQQSGVWLITFGQGTKVEIK 530

Supply Kd value. Item: X3 Fab (Fab, V domains shown, Fab format) VH: EVQLVESGGGLVQPGGSLRLSCAASGFTISSSSIHWVRQAPGKGLEWVASISSSSGYTYYADSVKGRFTISADTSKNTAYLQMNSLRAEDTAVYYCARSWYEMWMSGYFGFDYWGQGTLVTVSS VL: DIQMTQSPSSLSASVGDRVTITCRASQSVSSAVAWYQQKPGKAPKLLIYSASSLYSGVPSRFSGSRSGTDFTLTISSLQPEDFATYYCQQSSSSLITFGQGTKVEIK 110

Supply Kd value. Item: X13 Fab (Fab, V domains shown, also called Fab Clone X13) VH: EVQLVESGGGLVQPGGSLRLSCAASGFTISSSSIHWVRQAPGKGLEWVASISSSSGSTSYADSVKGRFTISADTSKNTAYLQMNSLRAEDTAVYYCARSSEHWYTIGYYGIDYWGQGTLVTVSS VL: DIQMTQSPSSLSASVGDRVTITCRASQSVSSAVAWYQQKPGKAPKLLIYSASSLYSGVPSRFSGSRSGTDFTLTISSLQPEDFATYYCQQSYGSFSLITFGQGTKVEIK 1700

Supply Kd value. Item: X1 Fab (Fab, V domains shown, m52 is the same Fab tetramerized with streptavidin; also called Fab Clone X1 (monovalent Fab format)) VH: EVQLVESGGGLVQPGGSLRLSCAASGFTFSSSSIHWVRQAPGKGLEWVASISSSSGSTSYADSVKGRFTISADTSKNTAYLQMNSLRAEDTAVYYCARKYWSQYYWAHYYGGLDYWGQGTLVTVSS VL: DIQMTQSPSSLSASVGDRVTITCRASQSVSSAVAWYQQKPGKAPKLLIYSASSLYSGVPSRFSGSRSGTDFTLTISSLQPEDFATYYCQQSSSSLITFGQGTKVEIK 390

Supply Kd value. Item: X7 Fab (Fab, V domains shown, also called Fab Clone X7) VH: EVQLVESGGGLVQPGGSLRLSCAASGFTLYSSSIHWVRQAPGKGLEWVASISSSYSSTYYADSVKGRFTISADTSKNTAYLQMNSLRAEDTAVYYCARLAGLYHYPGYLGLDYWGQGTLVTVSS VL: DIQMTQSPSSLSASVGDRVTITCRASQSVSSAVAWYQQKPGKAPKLLIYSASSLYSGVPSRFSGSRSGTDFTLTISSLQPEDFATYYCQQSSRSSLLTFGQGTKVEIK 4500
